Test system: TTR
Assay: TTR editing in primary human hepatocytes transfected with Spy Cas9 protein (RNP) loaded with dgRNAs (Table 8)
Assay type: cell-based
Settings: dgRNA transfected with Spy Cas9 protein (RNP)
Classify by measured Avg % Deletion: criterion met if it is equal to or exceeds 1%, criterion not met if it is smaller.

Input: Hi, just wondering whether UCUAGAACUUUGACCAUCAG (tested as dual guide RNA, chemistry not given here) [CR003345] shows Avg % Deletion of 1% or higher.
Output: criterion met

Input: Hi, just wondering whether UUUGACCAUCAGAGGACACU (tested as dual guide RNA, chemistry not given here) [CR003344] shows Avg % Deletion of 1% or higher.
Output: criterion met

Input: Hi, just wondering whether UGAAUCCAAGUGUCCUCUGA (tested as dual guide RNA, chemistry not given here) [CR005303] shows Avg % Deletion of 1% or higher.
Output: criterion not met

Input: Hi, just wondering whether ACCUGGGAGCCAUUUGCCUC (tested as dual guide RNA, chemistry not given here) [CR003354] shows Avg % Deletion of 1% or higher.
Output: criterion not met

Input: Hi, just wondering whether AAAUCUUACUGGAAGGCACU (tested as dual guide RNA, chemistry not given here) [CR005306] shows Avg % Deletion of 1% or higher.
Output: criterion met

Input: Hi, just wondering whether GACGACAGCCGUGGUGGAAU (tested as dual guide RNA, chemistry not given here) [CR003388] shows Avg % Deletion of 1% or higher.
Output: criterion met

Input: Hi, just wondering whether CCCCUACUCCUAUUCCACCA (tested as dual guide RNA, chemistry not given here) [CR003385] shows Avg % Deletion of 1% or higher.
Output: criterion met

----------
Answer each item with its documented Avg % Insert.
Test system: TTR
Assay: TTR editing in HepG2 cells transfected with Spy Cas9 mRNA and dgRNAs (Table 6)
Assay type: cell-based, human
Conditions: HepG2 cells co-transfected with Spy Cas9 mRNA (SEQ ID NO:2) and dgRNAs
Use % as the unit, but write only the number.

Input: TTR / Avg % Insert / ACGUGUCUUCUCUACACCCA (tested as dual guide RNA, chemistry not given here) [CR005302] : value?
Output: 30.93

Input: TTR / Avg % Insert / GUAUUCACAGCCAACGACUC (tested as dual guide RNA, chemistry not given here) [CR003373] : value?
Output: 15.92

Input: TTR / Avg % Insert / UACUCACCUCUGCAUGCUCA (tested as dual guide RNA, chemistry not given here) [CR003372] : value?
Output: 12.14

Input: TTR / Avg % Insert / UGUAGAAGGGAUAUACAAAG (tested as dual guide RNA, chemistry not given here) [CR003365] : value?
Output: 35.77

Input: TTR / Avg % Insert / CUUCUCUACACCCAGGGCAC (tested as dual guide RNA, chemistry not given here) [CR003342] : value?
Output: 10.78

The values you see were collected from patent US11795460B2.
